Assay: Half life in mouse liver microsomes at 0.1 uM preincubated for 10 mins followed by NADPH addition and measured up to 60 mins by LC-MS/MS analysis
Format: ADME, Microsome
Conditions: time 70 min
READOUT LABEL: half-life at 0.1 µM (min)
Reply numerically in min, unit not repeated.

half-life at 0.1 µM in this record for CCCCCCCCCC(CCO)n1cnc2c(Cl)ncnc21 (racemic) : 1

---

Test system: HCT-116
Assay: Antiproliferative activity against human HCT-116 cells assessed as reduction in cell viability incubated for 48 hrs by MTT assay
Assay type: functional, cell-based
Details: HCT-116, 48 h
READOUT LABEL: pIC50
Note: pIC50 values are expressed as the negative base-10 logarithm of concentration in M.

Here are 3 compounds together with their reported answers.
>  <COMPOUND>
CCCCCCCCC(CCO)n1cnc2c(N)ncnc21 (racemic)

>  <TEST TARGET>
HCT-116

>  <pIC50>
4.94

$$$$
>  <COMPOUND>
CCCCCCCCCC(CCN=[N+]=[N-])n1cnc2c(Cl)ncnc21 (racemic)

>  <TEST TARGET>
HCT-116

>  <pIC50>
5.98

$$$$
>  <COMPOUND>
C=C(CO)C(CCCCCCCC)n1cnc2c(Cl)ncnc21 (racemic)

>  <TEST TARGET>
HCT-116

>  <pIC50>
4.71

$$$$

pIC50 in this record for CCCCCCC(CCO)n1cnc2c(Cl)ncnc21 (racemic) : 4.92

pIC50 in this record for CCCCCCCC(CCO)n1cnc2c(OC)ncnc21 (racemic) : 4.82

pIC50 in this record for CCCCCCCCCC(CCn1cc(-c2ccccc2)nn1)n1cnc2c(Cl)ncnc21 (racemic) : 4.87

pIC50 in this record for CCCCCCCC(CCO)n1cnc2c(Cl)ncnc21 (racemic) : 5.38

pIC50 in this record for CCCCCCCCCCCC(CCO)n1cnc2c(N)nc(Cl)nc21 (racemic) : 4.70

---

Test: Acute toxicity in BALB/c mouse assessed as animal survival at 100 mg/kg, ip administered per 4 hrs for 4 times and measured everyday for 14 days (Rb =100%)
Format: organism-based
Details: in vivo, time 14 day
READOUT LABEL: survival at 336 h (%)
Reply numerically in %, unit not repeated.

survival at 336 h in this record for CCCCCCCCCC(CCO)n1cnc2c(Cl)ncnc21 (racemic) : 100

---

Test system: U-87 MG
Assay: Antiproliferative activity against human U-87 MG cells assessed as reduction in cell viability incubated for 48 hrs by MTT assay
Type: functional, cell-based, U-87MG ATCC
READOUT LABEL: IC50

IC50 in this record for O=c1[nH]cc(F)c(=O)[nH]1 : > 50 µM

---

Tested on: HCT-116
Test: Antiproliferative activity against human HCT-116 cells assessed as reduction in cell viability incubated for 48 hrs by MTT assay
Assay type: functional, cell-based
Conditions: HCT-116, 48 h
Labelling: IC50 reported below 10 µM becomes Condition met; at or above becomes Condition not met.

Example cases with answers are listed next.
>  <COMPOUND>
O=c1[nH]cc(F)c(=O)[nH]1 [FLUOROURACIL]

>  <LABEL>
Condition not met

$$$$
>  <COMPOUND>
CCCCCCC(CCO)n1cnc2c(N)nc(Cl)nc21 (racemic)

>  <LABEL>
Condition not met

$$$$
>  <COMPOUND>
CCCCCCC(CCO)n1cnc2cncnc21 (racemic)

>  <LABEL>
Condition not met

$$$$

q: In the record for C=C(CO)C(CCCCCCC)n1cnc2c(Cl)ncnc21 (racemic) , is IC50 less than 10 µM?
a: Condition not met

q: In the record for CCCCCCCC[C@H](CCO)n1cnc2c(Cl)ncnc21 , is IC50 less than 10 µM?
a: Condition met

q: In the record for CCCCC(CCO)n1cnc2c(OC)ncnc21 (racemic) , is IC50 less than 10 µM?
a: Condition not met

q: In the record for CCCCCCCCC[C@H](CCO)n1cnc2c(Cl)ncnc21 , is IC50 less than 10 µM?
a: Condition met

q: In the record for CCCCCCCCC[C@H](CCOS(C)(=O)=O)n1cnc2c(Cl)ncnc21 , is IC50 less than 10 µM?
a: Condition met
